Tested on: glycogen synthase kinase-3 (GSK3A per assay name; protocol says GSK3B)
protocol: GSK3 binders on small-molecule microarrays, primary screen, biochemical, small-molecule microarray, 635 nm fluorescence, GSK3A (AID 1103); note: the record names both GSK3A and GSK3B
conditions: small-molecule microarray binding, fluorescence 635 nm; higher = more signal
composite z-score below 0.1 gives Not fulfilled; composite z-score at or above it gives Fulfilled.

[[record]]
compound = "CC1CC/C=C\\[C@H]2OC34C=CCN(Cn5nnc6ccccc65)C(=O)[C@H]3N(CCO)C(=O)[C@@H]4C2C(=O)O1 (some centres undefined)"
classification = "Fulfilled"


Determine whether this compound has composite z-score no lower than 0.1: "CCCC=C(CCC)[C@@H](NC(=O)c1ccc(-c2ccccc2)cc1)c1ccc(C(=O)OC)cc1" Fulfilled

Determine whether this compound has composite z-score no lower than 0.1: "COc1ccc(O[C@H]2C=C[C@@H](c3ccccc3)O[C@@H]2COC(=O)N2CCCCC2)cc1" Not fulfilled

----------
protocol: E. coli acrAB mutant growth effects, primary screen, E. coli filamentation inducers, strain DRC39, OD650, 48 h (AID 1179);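 note: screen aims at cell division blockers that make cells filament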
conditions: E. coli DRC39 delta-acrAB growth, higher = more signal, called active from +8 up or from −8 down
readout: z-score
Please give the numeric answer without any surrounding text.

[[record]]
molecule = "C[C@@H](c1ccccc1)N1C(=O)[C@H]2[C@H]3[C@H](O)C=CC(=O)[C@@H]3CC[C@H]2C1=O"
readout = "z-score"
measured = -0.286

[[record]]
molecule = "CCOC(=O)C1=CCC(c2cc3ccccc3[nH]2)NC1 (centres undefined)"
readout = "z-score"
measured = -0.391

[[record]]
molecule = "COC(=O)[C@@H]1CC[C@H](C)[C@@H](c2ccc(C)cc2)N1C(=O)c1ccc(C=NOC[C@@H](O)COCc2ccco2)cc1"
readout = "z-score"
measured = 0.663


The reported z-score of the molecule CCOC(=O)[C@H](Cc1ccccc1)NC(=O)CCC1CC(OC(=O)NCc2ccc3c(c2)OCO3)CC2(CCCC(COC(=O)NCc3cccc(C(F)(F)F)c3)O2)O1 (some centres undefined) was -0.793

----------
experimental-system: Dickkopf-related protein 1 (Homo sapiens)
protocol: DKK1 binders on small-molecule microarrays, primary screen, biochemical, small-molecule microarray, 635 nm fluorescence scan (AID 1106);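 note: score merges emission near 667 nm with signal to noise over three replicate slides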
conditions: DKK1 binding, higher = more signal
Documented composite z-score across a set of molecules
Please give the numeric answer without any surrounding text.

Please review the entries below; each comes with its answer.
[[record]]
molecule = "C[C@@H]1CCC2C(=O)N(Cc3ccccc3)C[C@@H](O)CN2[C@H]1c1ccc(Br)cc1 (some centres undefined)"
measured = 0.228

[[record]]
molecule = "O=C(CS)NCCCCCNC(=O)[C@@H]1C[C@@H]2C(=O)N[C@@H](Cc3ccccc3)C(=O)N2[C@@H]1c1ccc(O)cc1"
measured = 0.325

[[record]]
molecule = "CCOC(=O)[C@H](CC(C)C)NC(=O)CCC1CC(OC(=O)NCCc2ccc(F)cc2)CC2(CCCC(COC(=O)NCc3ccccc3)O2)O1 (some centres undefined)"
measured = 0.89

[[record]]
molecule = "COC(=O)[C@@H]1CC[C@H](C)[C@@H](c2ccc(C)cc2)N1C(=O)c1ccc(C=NOC(C)CN2CCCCc3nc(C)c(C)cc32)cc1 (some centres undefined)"
measured = 0.323

[[record]]
molecule = "Cc1ccc(S[C@]2(C(=O)O)CC(=O)N(Cc3ccccc3)[C@@H]2c2ccc(CO)cc2I)cc1"
measured = -0.776


The reported composite z-score of the molecule Cn1cccc1C(O)C1C=CC2C(=O)NC(=O)C2N1Nc1ccccn1 (centres undefined) was 0.133

The reported composite z-score of the molecule "CC(C)CN1CCc2nc(-c3ccccc3)c3c(c2CC1)CO[C@@H](C)C3" was 0.718

The reported composite z-score of the molecule CCOC(=O)[C@H](Cc1ccccc1)NC(=O)CCC1CC(OC(=O)NCc2ccc3c(c2)OCO3)CC2(CCCC(COC(=O)NCc3cccc(C(F)(F)F)c3)O2)O1 (some centres undefined) was 0.495

The reported composite z-score of the molecule "CCCCc1nc2c(c3c1C[C@H](C)OC3)CN(CCC(C)C)CC2" was 0.562

----------
Documented composite z-score across a set of molecules
experimental-system: Alpha-bungarotoxin (Bungarus multicinctus) (UniProt P60615)
Sequence (P60615 whole entry, looked up): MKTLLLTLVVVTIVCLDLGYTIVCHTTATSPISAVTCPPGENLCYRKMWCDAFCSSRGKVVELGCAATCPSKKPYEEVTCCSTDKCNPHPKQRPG
protocol: alpha-bungarotoxin binders on microarray, profiling panel, artefact control for SMM control protein annotation, biochemical, small-molecule microarray, Alexa647 label, 635/667 nm fluorescence (AID 1117)
conditions: alpha-BTX-A647 binding fluorescence, higher = more signal
Please give the numeric answer without any surrounding text.

Please review the entries below; each comes with its answer.
[[record]]
molecule = "Cc1ccc(S[C@]2(C(=O)O)CC(=O)N(Cc3ccccc3)[C@@H]2c2ccc(CO)cc2I)cc1"
measured = 0.823

[[record]]
molecule = "CC(=O)OC[C@H]1O[C@H](C#CCCCc2ccccc2)C=C[C@@H]1OC(C)=O"
measured = 0.155

[[record]]
molecule = "CC(=O)O[C@H]1C2=C(C(=O)[C@@H]3O[C@@H]31)[C@H]1C(C)O[C@@H]2[C@@]23C(=O)[C@@H]4O[C@@H]4[C@@H](O)C2=CO[C@H](C)[C@@H]13 (stereo not given in full)"
measured = -0.858

[[record]]
molecule = "O=C(CS)NCCCCCNC(=O)[C@@H]1C[C@@H]2C(=O)N[C@@H](Cc3ccccc3)C(=O)N2[C@@H]1c1ccc(O)cc1"
measured = 1.48

[[record]]
molecule = "COC(=O)CC=C[C@@H](C)[C@@H](C=NO[C@@H](C)c1cc(-c2c(C)cc(C)cc2C)no1)OC"
measured = -1.11

[[record]]
molecule = "CC(C)CON=C1C[C@@H](O)[C@@H](O)[C@@H]2[C@@H]3C(=O)N(Cc4ccccc4)C(=O)[C@@H]3CC[C@@H]12"
measured = -0.102

[[record]]
molecule = "C#C[C@@H]1Oc2ccccc2S(=O)(=O)N2CCC[C@H]12"
measured = -0.302

[[record]]
molecule = "CCCNC(=O)[C@@H]1c2ccccc2C(=O)N(c2ccc(C)cn2)[C@H]1c1ccc(CO)cc1"
measured = 0.4


Record "CCN1C(=O)[C@H]2[C@H]3[C@H](O)[C@H](O)CC(=NOCc4ccccc4)[C@H]3CC[C@H]2C1=O" / Alpha-bungarotoxin (Bungarus multicinctus) (UniProt P60615), composite z-score recorded as 0.437

----------
protocol: splicing luciferase reporter signal modulators, primary screen, spliceosome inhibition project, cell-based, HEK293, splice +/- reporter (AID 1101);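 note: HEK293 cells carrying a splicing-competent luciferase reporter gene; test concentration not given here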
conditions: luminescence, 24 h, higher = more signal, called active from +8 up or from −8 down
Calls of active or inactive are those of the source.
readout: z-score

Please review the entries below; each comes with its answer.
[[record]]
molecule_smiles = "CCOC(=O)CCN1C(=O)[C@H]2[C@H]3[C@H](O)[C@H](O)CC(=NOC[C@@H](O)COCc4ccco4)[C@@H]3CC[C@H]2C1=O"
measured = "0.395 (inactive)"

[[record]]
molecule_smiles = "CO[C@@H]1COC(=O)[C@@H]2CCCN2C(=O)[C@@H](C)COC(=O)[C@H](COCc2ccccc2)NC(=O)CC=C[C@H]1C"
measured = "-0.425 (inactive)"

[[record]]
molecule_smiles = "C[C@@H]1C=CCC(=O)OC[C@H](C)C(=O)N[C@@H](C)C(=O)OC1"
measured = "-0.586 (inactive)"


Alright, here's another molecule for you.
The reported z-score of the molecule "CC(C)[C@@H](OCc1ccccc1)[C@H](C)C=NOC[C@@H](C)[C@H](OCc1ccccc1)C(C)C" was 0.741 (inactive)

----------
protocol: PSAC antagonists in infected red cells, primary screen, cell-based, P. falciparum Indochina, OD700, 18 h (AID 1157)
conditions: P. falciparum Indochina infected erythrocytes, osmotic lysis OD700, 18 h; higher = more signal, called active from +8 up or from −8 down
z-score below 0.4 gives Not fulfilled; z-score at or above it gives Fulfilled.

[[record]]
compound = "COC(=O)[C@H](C)NC(=O)CCC1CC(OC(=O)NCc2ccc3c(c2)OCO3)CC2(CCCC(COC(=O)NCCOc3ccccc3)O2)O1 (stereo not given in full)"
classification = "Not fulfilled"

[[record]]
compound = "CCCC[C@H]1OB(O)C[C@H]2C1=C(C)C[C@H]1C(=O)N(C)C(=O)[C@H]12"
classification = "Not fulfilled"

[[record]]
compound = "CC(=O)OC[C@H]1O[C@H](CCON=C(C)CCC(=O)OC[C@H]2O[C@H](C#Cc3ccccc3)C=C[C@@H]2Oc2ccc(C)cc2)C=C[C@@H]1OC(C)=O"
classification = "Fulfilled"


Determine whether this compound has z-score no lower than 0.4: "CC(=O)OC[C@H]1O[C@H](CCON=C[C@@H](C)[C@H](OCc2ccccc2)C(C)C)C=C[C@@H]1OC(C)=O" Not fulfilled

Determine whether this compound has z-score no lower than 0.4: "CO[C@H]1COC(=O)[C@@H]2CCCN2C(=O)CC=C[C@@H](C)[C@H](OC)COC(=O)CC=C[C@@H]1C" Not fulfilled

Determine whether this compound has z-score no lower than 0.4: "O=C1[C@H]2[C@H]3[C@H](O)[C@H](O)CC(=NO[C@@H]4O[C@H](CO)[C@@H](O)[C@H](O)[C@H]4O)[C@H]3CC[C@H]2C(=O)N1C1CCCCC1" Not fulfilled

Determine whether this compound has z-score no lower than 0.4: "CC(C)NC(=O)[C@@]1(C)c2ccccc2C(=O)N(Cc2cc(F)cc(C(F)(F)F)c2)[C@H]1c1ccc(CO)cc1" Not fulfilled

Determine whether this compound has z-score no lower than 0.4: "CC[C@@H](c1ccccc1)n1c(=O)n2n(c1=O)[C@H]1[C@H](O)[C@@H]3O[C@@H]3C(=NOCC=C(C)CCC=C(C)C)[C@H]1CC2" Not fulfilled
